The reported measurements were obtained from PubChem BioAssay (NCI).

experiment: NCI Yeast Anticancer Drug Screen. Data for the mlh1 rad18 strain (AID 175); details: S. cerevisiae mlh1 rad18 strain growth inhibition; at 50.0 µM (retest, dose inferred, filed as 5.0); active compounds read high
Compounds without any hit were thinned out: in the full panel of roughly 79,000, 15% have a hit.
Reported growth inhibition by item:
Express it in %; write the number only.

Check out these entries, answers already filled in.
| COMPOUND | MEASURED NUMBER |
| --- | --- |
| COc1ccc(/C=C/c2ccnc3ccccc23)cc1 | 98 |
| CN(C)CCC(=O)[C@@]1(O)CC[C@H]2[C@@H]3CC=C4C[C@@H](O)CC[C@]4(C)[C@H]3CC[C@@]21C | 68 |
| COc1ccc(NC(=O)CSC(N)=O)cc1 | 12 |

Q) // growth inhibition lookup, key: `Cc1ccc(NCCN(C)C)c2c(=O)c3c(O)cccc3sc12`
A) 99

Q) For `COc1ccccc1NC(=O)C1=C(C)NC(C)=C(C(=O)Nc2ccccc2OC)C1c1ccc(C2C(C(=O)Nc3ccccc3OC)=C(C)NC(C)=C2C(=O)Nc2ccccc2OC)cc1` , what is its reported growth inhibition?
A) 95

Q) For the compound shown here, CCCCN(CCCC)/N=C\C1=C2NC(=O)/C(C)=C\C=C/C(OC)C(OC(N)=O)/C(C)=C/C(C)C(O)C(OC)CC(C)CC(=C(OC)C1=O)C2=O (stereo not given) , give the reported growth inhibition.
A) 80

Q) What does the data say about its growth inhibition? Entry: Oc1ccc2c(c1)OCC1c3ccccc3OC21 (stereo not given)
A) 88

Q) What does the data say about its growth inhibition? Entry: `S=C(Nc1ccccc1)[S][Sb]([S]C(=S)Nc1ccccc1)[c]1ccccc1`
A) 94

Q) Recorded growth inhibition for `Oc1ccccc1C1CCCCC1` , please?
A) 46

Q) Given the entry CC1(C)N([O-])[N+](=O)C1(Br)c1ccccc1 (stereo not given) , report its measured growth inhibition.
A) 99

Q) Which growth inhibition is listed for `CC(=O)NC1=C(Sc2ccc(C)cc2)C(=O)c2ccccc2C1=O` ?
A) 99

Q) Query: growth inhibition; subject: `COc1ccc(CSC(=S)Nc2ccc(Cl)c(C(F)(F)F)c2)cc1`
A) 21

Q) Entry under review: `O=C(O)c1cc(-c2ccc3c(c2)Nc2ccccc2S3)nc2ccc(F)cc12` . Reported growth inhibition?
A) 96

Q) Would you mind telling me what growth inhibition value was observed for `O=[N+]([O-])/C=C/c1ccco1` ?
A) 99

Q) Entry under review: O=C1c2ccccc2C(=O)C2OC12 (stereo not given) . Reported growth inhibition?
A) 99

* * *

experiment: NCI Yeast Anticancer Drug Screen. Data for the rad50 strain (AID 155);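 also: 0% = growth of vehicle-only cultures of the same strain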; settings: S. cerevisiae rad50 strain growth inhibition; at 50.0 µM; active compounds read high
This is part of a sample that, as a whole, favours compounds with a hit. Of some 79,000 tested, about 15% had one in any assay.
MEASURED PARAMETER: growth inhibition (%)
Express it in %; write the number only.

Use these answered entries as a reference point.
| COMPOUND | growth inhibition (%) |
| --- | --- |
| N=C(N)SC1c2ccccc2-c2ccc(N)cc21 (configuration not stated) | 98 |
| CCOC(=O)C1(Br)CCN(S(=O)(=O)c2ccc(C)cc2)c2ccccc2C1=O (configuration not stated) | 96.5 |
| CC1(C)CC(=O)C2=C(C1)OC1=C(CC(C)(C)CC1=O)C2c1ccccc1[N+](=O)[O-] (configuration not stated) | -21.8 |
| CCN1/C(=C/C=C/C=C\C=C\c2sc3ccc4ccccc4c3[n+]2CC)Sc2ccc3ccccc3c21 | 49.2 |
| CCOC(=O)Nc1cc(NC(C)/C(=N/O)c2ccccc2)c([N+](=O)[O-])c(N)n1 (configuration not stated) | 42.6 |

Q) Reported growth inhibition for `CN(C)CCCN1c2cc(Cl)ccc2Sc2ccc3ccccc3c21` : what is it?
A) 99.3

Q) What growth inhibition value was documented for this compound, CC(C)CCCC(C)C1CCC2(C)C3=CCC4C(C)(CCC(O)C4(C)C)C3=CCC12C (configuration not stated) ?
A) 89

Q) Fill in the blank: the reported growth inhibition of `O=C(/C=C\c1ccc([N+](=O)[O-])o1)/C=C/c1ccc([N+](=O)[O-])o1` is ____.
A) 96.8

Q) Fill in the blank: the reported growth inhibition of `Cn1c(=O)c2c(ncn2-c2ccncc2)n(C)c1=O` is ____.
A) 11.4

Q) # query: growth inhibition of entry COc1ccc(CCN2CC(=O)N3CSCC3C2=O)cc1OC (configuration not stated)
A) 66.7

* * *

assay: NCI Yeast Anticancer Drug Screen. Data for the mlh1 rad18 strain (AID 175); conditions: S. cerevisiae mlh1 rad18 strain growth inhibition; at 5.0 µM (retest, dose inferred, filed as 0.5)
This is part of a sample that, as a whole, favours compounds with a hit. Of some 79,000 tested, about 15% had one in any assay. Calls of active or inactive are those of the source. Cut-off read from the data, not from the text of the source: active = growth inhibition above about 70%; inactive = the rest.
The reply should name one outcome from True (active), False (inactive)

Q) State the result this test recorded for `CN1C(=O)c2ccccc2C1(c1ccccc1)c1ccccc1` .
A) False

Q) Per the records of this test, what outcome belongs to COc1cccc(NC(=S)NC(Cc2ccccc2)c2ccccc2)c1 (centres undefined) ?
A) False

Q) Called result for `CCN(CC)c1c(C(=O)/C=C/c2ccc(OC)cc2)c(-c2ccccc2)nn(C)c1=O`
A) False

Q) Each molecule tested received a call. Report the one for `NNC(=S)Nc1ccccc1` .
A) False

Q) Please share the test call associated with `C/C(=N/O)c1cccc(C(F)(F)F)c1` .
A) False

Q) Per the assay record, what outcome was assigned to O=C(O)/C=C/CCC1SCC2NC(=O)NC21 (centres undefined) ?
A) True

Q) Each molecule tested received a call. Report the one for COc1ccc(C(c2cc3c(cc2O)OCO3)N2CCCC2)c(OC)c1 (centres undefined) .
A) False

Q) Test call for this molecule, please: `COc1ccc2cc(CNCCCCCCCCNCc3ccc4cc(OC)ccc4c3)ccc2c1`
A) False

Q) What did the test return for O=C(O)C1(Cc2ccc3c(c2)CCC3)Cc2ccccc2C1=O (centres undefined) ?
A) False

Q) Returns: the outcome recorded for CC(=O)OC1OC2C(NC(=O)OC(C)(C)C)C1CC2(OCc1ccccc1)OCc1ccccc1 (centres undefined) in this assay.
A) False

Q) For `CNC(=O)NN(C)C=O` , what call appears in the results of this test?
A) False

Q) // return assay outcome for `C1CCN(c2nc(N3CCOCC3)c3[nH]c(N4CCCCC4)nc3n2)CC1`
A) False

Q) Tell me the recorded outcome of this test for `CC1=NN(c2nc(N)nc(NS(=O)(=O)c3cc(C)c(Cl)cc3S)n2)C(C)(C)C1` .
A) False

Q) Would you mind telling me which call this test gave N#CC1=C(N)OC(c2ccccc2)=C(C#N)C1c1ccccc1 (centres undefined) ?
A) True

Q) Recorded test call requested for O=C1OC(c2ccccc2)(c2ccc(-c3ccccc3O)cc2)c2ccccc21 (centres undefined)
A) True

* * *

experiment: NCI Yeast Anticancer Drug Screen. Data for the bub3 strain (AID 167); conditions: S. cerevisiae bub3 mutant strain, at 5.0 µM (retest, dose inferred, filed as 0.5), active compounds read high
This is part of a sample that, as a whole, favours compounds with a hit. Of some 79,000 tested, about 15% had one in any assay.
Listed below: growth inhibition values for each entry.
Numeric only. Scale: %

Solved entries:
| COMPOUND | UNIT LABEL | growth inhibition |
| --- | --- | --- |
| O=C(O)C(O)Cc1ccc(O)cc1 (stereo unspecified) | % | -70 |
| O=C1O/C(=C(/Cl)c2c3ccccc3cc3ccccc23)c2ccccc21 | % | -25 |
| Cn1c(=O)c2c(nnc(-c3ccccc3)[n+]2[O-])n(C)c1=O | % | -3 |

Q) Query (compound): `COC(=O)CCCCC(=O)N(C(C)C)C(C)C` ; field requested: growth inhibition
A) 2

Q) Suppose we examine the compound `COc1ccc(/C=C2\CN(C)C/C(=C\c3ccc(OC)c(OC)c3OC)C2=O)c(OC)c1OC` ; what growth inhibition value has been reported?
A) 14

Q) Tell me the measured growth inhibition of O=c1ccn(C2OC(COC(c3ccccc3)(c3ccccc3)c3ccccc3)C(O)C2O)c(=O)[nH]1 (stereo unspecified) , please.
A) 38

* * *

test: NCI Yeast Anticancer Drug Screen. Data for the rad50 strain (AID 155);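 also: 0% = growth of vehicle-only cultures of the same strain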; details: S. cerevisiae rad50 strain growth inhibition; at 50.0 µM
The panel holds about 79,000 compounds, 15% with a hit somewhere; the sample as a whole holds those more often. Active and inactive are the calls of the source. Cut-off read from the data, not from the text of the source: active = growth inhibition above about 70%; inactive = the rest.
Thanks in advance; please answer with one of these: active, inactive

| MOLECULE | CLASSIFICATION |
| --- | --- |
| CC1c2cc(c3c(c2O)CN([C@@H](C)C2CCCCC2)CO3)C(C)c2cc(c3c(c2O)CN([C@@H](C)C2CCCCC2)CO3)C(C)c2cc(c3c(c2O)CN([C@@H](C)C2CCCCC2)CO3)C(C)c2cc1c1c(c2O)CN([C@@H](C)C2CCCCC2)CO1 (some centres not stated) | inactive |
| CC1=C(C(=O)Nc2cccc(C(F)(F)F)c2)C(c2ccccc2F)C(C(=O)Nc2cccc(C(F)(F)F)c2)=C(C)N1 | active |
| O=NN(CCCl)C(=O)Nc1cc(Cl)ccc1O | active |
| CCOC(=O)C(=C=C=C(c1ccccc1)c1ccccc1)C(=O)OCC | inactive |
| O=C(O)c1cc2ccc3cccc4ccc(c1)c2c34 | active |
| O=C(NN1C(=O)C(Cl)C1c1ccc(O)cc1)c1ccccc1O (configuration not stated) | active |
| Clc1ccc(CN2COc3c(ccc4ccccc34)C2)cc1 | active |
| COC(=O)C1(Cc2ccc3c(c2)CCC3)Cc2ccccc2C1O (configuration not stated) | active |
| Oc1ccc(Cl)cc1-c1ccccc1 | active |
| CCS(=O)(=O)c1ccc(NC(=O)OC2CC(C)CCC2C(C)C)cc1 (configuration not stated) | active |

Q) Returns: the outcome recorded for `CSc1ccc(NC(=S)SC(C)C)cc1Cl` in this assay.
A) active

Q) Look up the recorded call for `O=C1C(=O)C2CC3(CC1N2Cc1ccccc1)OCCO3` in this test.
A) active
